Data origin: patent US20230044787A1

- Target desc: Lp-PLA2 (Homo sapiens, UniProt Q13093)
- Construct: aliquoted and thawed 40 μL of pooled human plasma was previously added; from tissue; host or cells: pooled human plasma
- Sequence (Q13093 22-441): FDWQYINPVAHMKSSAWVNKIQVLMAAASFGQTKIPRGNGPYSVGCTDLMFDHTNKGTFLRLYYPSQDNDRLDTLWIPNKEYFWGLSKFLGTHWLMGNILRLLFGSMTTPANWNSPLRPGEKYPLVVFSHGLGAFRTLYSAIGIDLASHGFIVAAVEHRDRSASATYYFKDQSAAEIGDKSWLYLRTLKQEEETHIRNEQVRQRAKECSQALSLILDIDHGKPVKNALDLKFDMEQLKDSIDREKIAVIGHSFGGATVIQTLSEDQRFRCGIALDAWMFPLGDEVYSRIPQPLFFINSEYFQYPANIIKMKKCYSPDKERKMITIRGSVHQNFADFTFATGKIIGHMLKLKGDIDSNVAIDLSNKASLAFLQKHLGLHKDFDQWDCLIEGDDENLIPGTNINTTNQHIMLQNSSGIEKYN
- Assay notes: Lipoprotein-associated phospholipase A2 (Lp-PLA2) human plasma assay (Thio-PAF assay)
- Assay type: biochemical
- Measurement conditions: Lp-PLA2 human plasma assay (Thio-PAF), pooled human plasma, 30-min pre-incubation at room temperature
Parameter: log10 IC50 (log10 of the value in nM)
On a log10 scale: recorded IC50, unit nM.

{"columns": ["Compound", "log10 IC50"],
 "data": [
  ["O=c1nc(OCc2cc(F)c(Oc3ccnc(C(F)(F)F)c3)c(F)c2)cc2n1CC13CCC(CC1)CN23", 1.16],
  ["O=c1nc(OCCc2ccc(Oc3ccnc(C(F)(F)F)c3)c(F)c2)cc2n1CC13CC(CN21)C3", 0.77],
  ["CC12CCCCN1c1cc(OCc3ccc(Oc4ccc(Cl)c(C(F)(F)F)c4)c(C#N)c3)nc(=O)n1C2 (stereo not drawn)", 0.84],
  ["O=c1nc(OCCc2ccc(Oc3cccc(C(F)(F)F)c3)cc2)cc2n1C[C@]13CO[C@H](CN21)C3", 0.77],
  ["O=c1nc(OCc2ccc(Oc3ccc(Cl)c(C(F)(F)F)c3)c(F)c2)cc2n1C[C@]13CO[C@H](CN21)C3", 0.66],
  ["O=c1nc(OCc2cc(F)c(Oc3cncc(C(F)(F)F)c3)c(F)c2)cc2n1C[C@@]13CO[C@@H](CN21)C3", 0.53],
  ["O=c1nc(OCCc2ccc(Oc3ccnc(C(F)(F)F)c3)cc2)cc2n1C[C@]13CO[C@H](CN21)C3", 0.77],
  ["N#Cc1cc(COc2cc3n(c(=O)n2)CC24CCC(CC2)N34)ccc1Oc1cccc(C(F)(F)F)c1", 0.41]
]}

Moving on to another compound below.
Exam item: Lookup: log10 IC50 / Lp-PLA2 (Homo sapiens, UniProt Q13093) / O=c1nc(OCc2ccc(Oc3ccc(C(F)(F)F)nc3)c(F)c2)cc2n1CC13CC(CN21)C3
Marked response: 0.96
